# target.entity: T1, Rat Serum Albumin (rat, UniProt P02770 25-608)
# T1 construct: mature; Bought purified serum protein; also called RSA; rat SA
# experiment: SPR (BIAcore), purified dAb
# Experimental: Unique dAbs were expressed as bacterial supernatants in 0.5 L shake flasks in Onex media at 30° C. for 48 hrs at 250 rpm. dAbs were purified from the culture media by absorption to protein L streamline followed by elution with 100 mM glycine pH2.0.
attribute.measured: Kd (nM)

[[record]]
binder = "DOM7h-14-119 (other) VL: DIQMTQSPSSLSASVGDRVTITCRASQWIGSQLSWYQQKPGKAPKLLIMWRSSLQSGVPSRFSGSGSGTDFTLTISSLQPEDFATYYCAQGLRHPKTYGQGTKVEIKR"
attribute_measured = "Kd"
unit_descriptor = "nM"
recorded_measurement = 6.2

[[record]]
binder = "DOM7h-14-82 (other, pDOM5 myc tag not included) VL: DIQMTQSPSSLSASVGDRVTITCRASQWIGSQLSWYQQKPGKAPKLLIMWRSSLQSGVPSRFSGSGSGTDFTLTISSLQPEDFATYYCAQGMRHPKTFGQGTKVEIKW"
attribute_measured = "Kd"
unit_descriptor = "nM"
recorded_measurement = 11.8

[[record]]
binder = "DOM7h-14-109 (other, pDOM5 myc tag not included) VL: DIQMTQSPSSLFASVGDRVTITCRASQWIGSQLSWYQQKPGKAPKLLIMWRSSLQSGVPSRFSGSGSGTDFTLTISSLQPEDFATYYCAQGLRKPKTFGQGTKVKIKW"
attribute_measured = "Kd"
unit_descriptor = "nM"
recorded_measurement = 15.4


(A) DOM7h-14-74 (other, pDOM5 myc tag not included) VL: DIQMTQSPSSLSASVGDRVTITCRASQWIGSQLSWYQQKPGKAPKLLIMWRSSLQSGVPSRFSGSGSGTDFTLTISSLQPEDFATYYCAQGLRHPKTYGKGTKVENKW
(B) DOM7h-14-120 (other) VL: DIQMTQSPSSLSASVGDRVTITCRASQWIGSQLSWYQQKPGKAPKLLIMWRSSLQSGVPSRFSGSGSGTDFTLTISSLQPEDFATYYCAQGLRHPKTYGQGTKVENKR
Request: Could you kindly indicate whether A or B has the higher Kd value? // caller expects the label of the chosen entry
Response: A
(A: 4.3 nM, B: 2.7 nM)
